The entries below come with measured ΔTm values attached.
- target or system: Cyclin-dependent kinase 2 (Homo sapiens) (UniProt P24941)
- experimental conditions: Compound concentration 20.0 uM
- Description: Thermal Shift Assay. Domain: start/stop: M1-L298
observable: ΔTm (°C)

>>> print(df.to_string())
                           molecular_string                          target_or_system  observable  recorded_number
0  CC(C)(O)c1ccc(-c2nc3c(F)cc(F)cc3c(=O)[nH]2)cc1  Cyclin-dependent kinase 2 (Homo sapiens) (UniProt P24941)         ΔTm            -0.55
1  CCN(c1cc(-c2ccc(CN3CCOCC3)cc2)cc(C(=O)NCc2c(C)cc(C)[nH]c2=O)c1C)C1CCOCC1  Cyclin-dependent kinase 2 (Homo sapiens) (UniProt P24941)         ΔTm            -0.42
2            Fc1ccc(CNc2ncnc3ccc(F)cc23)cc1  Cyclin-dependent kinase 2 (Homo sapiens) (UniProt P24941)         ΔTm             0.04
3         O=C(O)/C(S)=C/c1c[nH]c2ccc(F)cc12  Cyclin-dependent kinase 2 (Homo sapiens) (UniProt P24941)         ΔTm            -0.97
4  CCCNC(=O)[C@H]1O[C@@H]1C(=O)N[C@H](C(=O)N1CCC[C@H]1C(=O)O)[C@@H](C)CC  Cyclin-dependent kinase 2 (Homo sapiens) (UniProt P24941)         ΔTm            -0.18
5     O=c1[nH][nH]c(=O)c2cc(OCc3ccsc3)ccc12  Cyclin-dependent kinase 2 (Homo sapiens) (UniProt P24941)         ΔTm             0.73
6  CS(=O)(=O)N1CCN(C(=O)c2cnc3ccc(F)cc3c2N2CCC(C#N)(c3ccccc3)CC2)CC1  Cyclin-dependent kinase 2 (Homo sapiens) (UniProt P24941)         ΔTm            -0.17
7  CN(CCCN1c2ccccc2CCc2ccccc21)CC(=O)c1ccc(Cl)cc1  Cyclin-dependent kinase 2 (Homo sapiens) (UniProt P24941)         ΔTm             0.04
8  CCCOc1ccc(CCc2nc3cc(-c4c(C)noc4C)ccc3n2CCN2CCOCC2)cc1  Cyclin-dependent kinase 2 (Homo sapiens) (UniProt P24941)         ΔTm            -1.68
9  Cc1cc(C(=O)N2CCN(C3CN(C(=O)c4ccc(-c5ccccc5)cc4)C3)CC2)no1  Cyclin-dependent kinase 2 (Homo sapiens) (UniProt P24941)         ΔTm            -0.01

---

- target or system: Glycogen synthase kinase-3 beta (Homo sapiens) (UniProt P49841)
- Sequence (P49841 whole entry, looked up): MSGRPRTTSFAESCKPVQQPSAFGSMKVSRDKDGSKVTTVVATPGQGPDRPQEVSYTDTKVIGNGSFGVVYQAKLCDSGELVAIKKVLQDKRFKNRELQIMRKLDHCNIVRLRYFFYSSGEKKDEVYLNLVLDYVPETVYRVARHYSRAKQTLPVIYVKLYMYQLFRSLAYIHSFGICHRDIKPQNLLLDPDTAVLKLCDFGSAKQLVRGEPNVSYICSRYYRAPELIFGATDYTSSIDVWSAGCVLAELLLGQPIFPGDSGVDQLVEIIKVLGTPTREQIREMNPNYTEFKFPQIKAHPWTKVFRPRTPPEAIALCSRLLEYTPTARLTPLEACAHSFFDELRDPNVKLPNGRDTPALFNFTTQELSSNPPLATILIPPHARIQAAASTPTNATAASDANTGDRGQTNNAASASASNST
- experimental conditions: Compound concentration 20.0 uM
- Description: Thermal Shift Assay. Domain: start/stop: M26-R383
Residues, ends and D or L forms follow the SMILES beside them. *: point of attachment. Cbz = O=C(OCc1ccccc1)*; CH2F = FC*

compound	readout units	ΔTm
Cc1ccc(C(=O)Nc2ccc(S(=O)(=O)O)c3cc(S(=O)(=O)O)cc(S(=O)(=O)O)c23)cc1NC(=O)c1cccc(NC(=O)Nc2cccc(C(=O)Nc3cc(C(=O)Nc4ccc(S(=O)(=O)O)c5cc(S(=O)(=O)O)cc(S(=O)(=O)O)c45)ccc3C)c2)c1	°C	-0.55
COc1cc(O)cc(CN2CCc3c(cc(Cn4ccn(C)c4=N)cc3-c3ccc(F)cc3C)C2=O)c1	°C	-0.55
Cc1c(F)c(N)cc(C(=O)Nc2cc(-n3cc(C(=O)NCCCN4CCOCC4)nn3)ccc2N2CCN(C)CC2)c1Cl	°C	-0.82
CNCC[C@@H](Oc1ccccc1C)c1ccccc1	°C	-0.38
Cc1cc(Cn2c(=O)n(Cc3cnc(C)s3)c(=O)c3cc(S(=O)(=O)NC4(C)CC4)ccc32)n(C)n1	°C	-0.6
N#C[C@@H]1CCCN1C(=O)CNC(=O)c1ccnc2ccc(OCCCN3CCN(C(=O)CN4CCN(CC(=O)O)CCN(CC(=O)O)CCN(CC(=O)O)CC4)CC3)cc12	°C	-0.21
O=C(NC(Cc1ccccc1)C(=O)NC(Cc1ccccc1)C(=O)CF)OCc1ccccc1 (stereo not drawn) (Cbz-Phe-Phe-CH2F; configuration not given here)	°C	0.04

The values you see were collected from ChEMBL document CHEMBL5724796.
